Entry source: patent US9260393B2

assay_text: Thermal behaviour (DSC and TGA)
Format: physicochemical
setup_conditions: heating rate 5 K/min
measurement_type: thermal stability

>>> recorded_measurement("O=C(NC[C@H](O)CO)c1ccncc1Nc1ccc(I)cc1F [Form B2]")
"sufficient"
>>> recorded_measurement("O=C(NC[C@H](O)CO)c1ccncc1Nc1ccc(I)cc1F [Form B1]")
"sufficient"
>>> recorded_measurement("O=C(NC[C@H](O)CO)c1ccncc1Nc1ccc(I)cc1F [Form A2]")
"sufficient"
>>> recorded_measurement("O=C(NC[C@H](O)CO)c1ccncc1Nc1ccc(I)cc1F [Form A1]")
"sufficient"

----------
assay_text: Thermodynamic solubility of Forms B1 and B2 in USP Phosphate Buffer (pH 7.4)
Type: physicochemical
setup_conditions: USP phosphate buffer, 37 °C, pH 7.4, aqueous buffer, thermodynamic from solid, USP phosphate buffer (pH 7.4), 24 hours, duplicate preparations #1, #2
Method: Approximately 17 mg of Compound C (free base) crystalline form B1 were dispersed in 2 mL USP Phosphate Buffer (pH 7.4) in Whatman Uniprep Syringless Filter vials in duplicate preparations. […] All dispersions were agitated at 37° C. for 24 hours. Dispersions were then filtered via the internal filter of the Uniprep vials, and clear filtrates were analysed by HPLC for dissolved quantities of Compound C. […]
measurement_type: solubility at 24 h

Prompt: Provide one value: measured solubility at 24 h of O=C(NC[C@H](O)CO)c1ccncc1Nc1ccc(I)cc1F [Form B1]
Response: ~50 µg/mL
